tested on: P. falciparum oocysts in Anopheles stephensi mosquitoes; assay: Standard membrane feeding assay (SMFA), indirect format; assay type: cell-based, Plasmodium falciparum; settings: Expt 2
observable: Mean Oocyst Intensity in Test Compound
Output: the number by itself.

Some solved cases for reference:
CC(C)(CNC(=O)[C@H]1CCCCN1)c1nc(-c2ccc(Cl)c(O)c2)c(-c2ccncc2)[nH]1
0.2
CC1Cc2ccccc2N1S(=O)(=O)c1cccc(C(=O)Nc2nc(-c3ccccn3)cs2)c1 (stereo not drawn)
2.5

### Prompt Query for P. falciparum oocysts in Anopheles stephensi mosquitoes: what Mean Oocyst Intensity in Test Compound does the record show for COc1cc(OC)cc(C(=O)Nc2nc(-c3ccccn3)cs2)c1 ?
### Response 1.0

### Prompt Please do the same for Cc1ccc(Cn2nc(Cl)c(N3CCNCC3)cc2=O)cc1NC(=O)Nc1ccc(-c2ccccc2)cc1 as well.
### Response 0.2

### Prompt Please do the same for FC(F)(F)c1cnc(Sc2nnc(-c3ccncc3)o2)c(Cl)c1 as well.
### Response 0.1

### Prompt Please do the same for NCC1(c2nc(-c3ccc(Cl)c(O)c3)c(-c3ccncc3)[nH]2)CCCCC1 as well.
### Response 0.1
